Target: T1, recombinant human CLEC-1 protein with His Tag (#1704-CL R&D Systems) (human, UniProt Q8NC01 74-280)
T1 construct: Bought protein; also called His-CLEC1; His Clec-1; not shown: His tag
T1 sequence: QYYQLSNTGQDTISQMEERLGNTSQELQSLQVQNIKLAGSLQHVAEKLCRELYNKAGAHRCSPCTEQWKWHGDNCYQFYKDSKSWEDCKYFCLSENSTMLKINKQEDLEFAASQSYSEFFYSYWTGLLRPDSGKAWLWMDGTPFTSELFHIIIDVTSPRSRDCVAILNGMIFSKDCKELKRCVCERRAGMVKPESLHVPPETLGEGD
Test: Blitz biolayer interferometry, His-CLEC1 on Ni-NTA biosensor, antibody at 20 ug/mL
Quick list: pKd per entry.
// pKd is dimensionless: -log10 of concentration (M)

Check out these entries, answers already filled in.
murine anti-hCLEC1 antibody 15E3-G3 (antibody, V domains shown, Mouse hybridoma antibody) VH: QVQLQQSGPELVKPGASVKMSCKASGFTFTDYVIAWVKVRTGQGLEWIGEIYPGSGSIYYNEKFKGKATLTADKSSNTAYMQLSSLTSEDSAVYFCASSTVVAFDYWGQGTTLTVSS VL: EIVLTQSPTTLAASPGEKIIITCSDSSSISSNYLHWYQQKPGFSPKLLIYGTSNLASGVPARFSGSGSGTTYSLTIGTMEAEDVATYYCQQGSSIPRTFGGGTKLEIK
7.85
murine anti-hCLEC1 antibody 5D1-A5 (antibody, V domains shown, Mouse hybridoma antibody) VH: QVQLKESGPGLVAPSQSLSITCTISGFSLTSYGVHWVRQPPGKGLEWLVVIWSDGSTIYNSALKSRLSISKDNSKSQVFLKMNSLQTDDTAMYYCARHGGYYNYFDYWGQGTTLTVSS VL: DIQMNQSPSSLSASLGDTITITCHASQNINVWLSWYQQKPGNIPKLLIYKASNLHTGVPSRFSGSGSGTGFTLTISSLQPEDIATYYCQQGQSYWTFGGGTKLEIK
7.79
murine anti-hCLEC1 antibody 11H11-G11 (antibody, V domains shown, Mouse hybridoma antibody) VH: QIHLVQSGPELKKPGETVKISCKASGYTFTNFGMNWVKQAPGKGLKWMGWINTNTGEPTYADDFKGRFAFSLETSASTAYLQINNLKNEDTATYFCARGAPAWFTYWGQGTLVTVSA VL: DIQMTQSPASLSASVGETVTITCRATENIYSYLAWYQQKQGKSPQFLVYNAKTLAEGMPSRFSGSGSGTQFSLKINILQPEDFGTYYCQHHFGTPLTFGAGTKLELK
8.54
murine anti-hCLEC1 antibody 14H9-F3 (antibody, V domains shown, Mouse hybridoma antibody) VH: QVQLKESGPGLVAPSQSLSITCTISGFSLTTYGIHWVRQPPGKGLEWLVVIWSDGSTIYNSALKSRLSISKDNSKSQVFLKMNSLQTDDTAIYYCARHGGYYNYFDYWGQGTTLTVSS VL: DIQMNQSPSSLSASLGDTITITCHASQNINVWLSWYQQKPGNIPKLLIYKASNLHTGVPSRFSGSGSGTTFTLTIDSLQPEDIATYYCQQGQSYWTFGGGTKLEIK
8.08

Q: Please give the measured pKd for this binder: murine anti-hCLEC1 antibody 10F4-H2 (antibody, V domains shown, Mouse hybridoma antibody) VH: QVQLQQSGTELARPGASVKMSCKASGYIFTDYTIHWVKQRPGQGLEWVGYINPSSGYTNYNQKFKAKATLTADKSSSTAYMQLSSLTSEDSAVYYCTPMFRRSYFDYWGQGTTLTVSS VL: DAVMTQTPLSLPVSLGDQASISCRSSQSLENSNGNTYLNWYLQKPGQSPQLLIYRVSNRFSGVLDRFSGSGSGTDFTLKISRVEAEDLGVYFCLQVTHVPYTFGGGTKLEIK
Ans: 8.24
